Taken from patent US6946482B2.

Listed molecules paired with reported pEC50
- system-under-test: UniProt O43193
- Sequence (O43193 whole entry): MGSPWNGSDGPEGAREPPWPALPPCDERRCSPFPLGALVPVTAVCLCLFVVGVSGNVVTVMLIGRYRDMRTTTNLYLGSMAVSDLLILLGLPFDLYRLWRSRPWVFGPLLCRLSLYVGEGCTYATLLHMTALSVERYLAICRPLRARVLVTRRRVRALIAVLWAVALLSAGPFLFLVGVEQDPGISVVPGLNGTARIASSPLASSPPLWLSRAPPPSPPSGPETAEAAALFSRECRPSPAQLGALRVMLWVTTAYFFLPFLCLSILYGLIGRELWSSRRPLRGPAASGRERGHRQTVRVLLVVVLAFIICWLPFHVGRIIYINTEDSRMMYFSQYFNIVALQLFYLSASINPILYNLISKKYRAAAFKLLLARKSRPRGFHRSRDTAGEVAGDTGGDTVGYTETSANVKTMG
- test-method-notes: Motilin receptor activation, calcium-influx assay
pEC50: −log10 of the molar value.
recorded-endpoint: pEC50

INSERT INTO assay_data (molecule, observed) VALUES
  ('CCC1OC(=O)C(C)C(OC2CC(C)(OC)C(O)C(C)O2)C(C)C(OC2OC(C)CC(N(C)C(C)C)C2O)C(C)(O)CC(C)C(O)C(C)C(O)C1(C)O (stereo not drawn) [B]', 6.31),
  ('CCC1OC(=O)C(C)C(OC2CC(C)(OC)C(O)C(C)O2)C(C)C(OC2OC(C)CC(N(C)C)C2O)C(C)(O)CC(C)C(O)C(C)C(O)C1(C)O [A, (9S)-9-dihydroerythromycin A, reference compound]', 5.60),
  ('CCCC1OC(=O)C(C)C(OC2CC(C)(OC)C(O)C(C)O2)C(C)C(OC2OC(C)CC(N(C)C)C2O)C(C)(O)CC(C)C(O)C(C)C(O)C1(C)O [F, (9S)-9-dihydro-15-methylerythromycin A]', 5.07),
  ('CCCC1OC(=O)C(C)C(OC2CC(C)(OC)C(O)C(C)O2)C(C)C(OC2OC(C)CC(N(C)C(C)C)C2O)C(C)(O)CC(C)C(O)C(C)C(O)C1(C)O (stereo not drawn) [G]', 5.85),
  ('CCC1OC(=O)C(C)C(OC2CC(C)(OC)C(O)C(C)O2)C(C)C(OC2OC(C)CC(N(C)C(C)C)C2O)C(C)(O)CC(C)C(O)C(C)CC1C (stereo not drawn) [J]', 6.80),
  ('CCCC1OC(=O)C(C)C(OC2CC(C)(OC)C(O)C(C)O2)C(C)C(OC2OC(C)CC(N(C)C(C)CC)C2O)C(C)(O)CC(C)C(O)C(C)C(O)C1(C)O (stereo not drawn) [H]', 5.48),
  ('COC1(C)CC(OC2C(C)C(=O)OC(CCF)C(C)(O)C(O)C(C)C(O)C(C)CC(C)(O)C(OC3OC(C)CC(N(C)C)C3O)C2C)OC(C)C1O [C, (9S)-9-dihydro-15-fluoroerythromycin A]', 5.30),
  ('CCN(C)C1CC(C)OC(OC2C(C)C(OC3CC(C)(OC)C(O)C(C)O3)C(C)C(=O)OC(CCF)C(C)(O)C(O)C(C)C(O)C(C)CC2(C)O)C1O (stereo not drawn) [D]', 5.70),
  ('COC1(C)CC(OC2C(C)C(=O)OC(CCF)C(C)(O)C(O)C(C)C(O)C(C)CC(C)(O)C(OC3OC(C)CC(N(C)C(C)C)C3O)C2C)OC(C)C1O (stereo not drawn) [E]', 6.28);
